B1: KLHL14 (parent)
chain: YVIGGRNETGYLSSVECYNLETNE

# Variants of: B1
# Experimental Protocol: protein stability index of a GFP-peptide fusion (GPS, HEK-293T) (PSI 1-6); higher = more stable;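 further: lentivirally expressed fusions sorted by FACS into six bins by GFP to DsRed ratio, PSI derived from sequencing read proportions per bin multiplied by bin number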
# Condition Details: c terminus: a fixed tail appended
Assay Endpoint: protein stability index
Could you respond with only the numeric value?

Here's what some known entries look like.
Mutant Code: E8R
protein stability index: 1.95
//
Mutant Code: T9Q
protein stability index: 2
//
Mutant Code: E16W
protein stability index: 2.93
//
Mutant Code: I3M
protein stability index: 2.1
//
Mutant Code: R6Y
protein stability index: 1.69
//
Mutant Code: V15C
protein stability index: 1.66
//
Mutant Code: T9K
protein stability index: 2.13
//
Mutant Code: T22S
protein stability index: 1.4
//
Mutant Code: L12P
protein stability index: 2.64
//
Mutant Code: E21H
protein stability index: 1.63

### Prompt Give its protein stability index value. Item: `Y18D`
### Response 2.77

### Prompt Entry under review: `S13T` . Reported protein stability index?
### Response 1.79
